Test system: grass pollen allergic donor derived TCL-03 lines
Experiment: Extended cross-reactivity study, proliferation on TCL03 DK1+DK2 (Study XR2), scoring
Type: cell-based, human
Conditions: study XR2; homologue from Pha a; score 0 to 7
Where no end group is shown, it is not given here.
// Cross-reactivity score, Pha a lookup, one value per entry
Lab note: jot the number down without any unit.

# count of solved cases: 3
[
  {
    "substance": "WGAIWRIDTPDKLTGPFTVR-OH [peptide 211]",
    "Cross-reactivity score, Pha a": 7
  },
  {
    "substance": "TDDNEEPIAPYHFDLSGHAF-OH [peptide 204]",
    "Cross-reactivity score, Pha a": 7
  },
  {
    "substance": "AYESYKFIPALEAAVKQAYA-OH [peptide 285]",
    "Cross-reactivity score, Pha a": 6
  }
]

Record summary for YHFDLSGHAFGAMAKKGDEQ-OH [peptide 205] : reported Cross-reactivity score, Pha a = 6

Record summary for GDEQKLRSAGELELQFRRVK-OH [compound 206] : reported Cross-reactivity score, Pha a = 1

Record summary for STGGAYESYKFIPALEAAVK-OH [compound 71] : reported Cross-reactivity score, Pha a = 5

Record summary for AGELELQFRRVKSKYPEGTK-OH [peptide 207] : reported Cross-reactivity score, Pha a = 6
